// data source = paper PMC2932959

# MEASURED TARGET: NET
# Type: binding, rat
# CONDITION CONTEXT: selectivity ratio for SERT over NET
MEASUREMENT TYPE: Ki(NET)/Ki (SERT)
Output spec: single numeric token, no unit.

Some solved cases for reference:
MOLECULE: CN(C)CCCC1(c2ccc(F)cc2)OCc2cc(CCc3ccccc3)ccc21 (centres unmarked)
MEASURED TARGET: NET
Ki(NET)/Ki (SERT): 122
--
MOLECULE: CN(C)CCCC1(c2ccc(F)cc2)OCc2cc(-c3cc(F)cc(F)c3)ccc21.O=C(O)C(=O)O (centres unmarked)
MEASURED TARGET: NET
Ki(NET)/Ki (SERT): 19
--
MOLECULE: COc1cccc(-c2ccc3c(c2)COC3(CCCN(C)C)c2ccc(F)cc2)c1 (centres unmarked)
MEASURED TARGET: NET
Ki(NET)/Ki (SERT): 284

Attention now turns to another entry.
Q. What value of measured Ki(NET)/Ki (SERT) is listed for CN(C)CCCC1(c2ccc(F)cc2)OCc2cc(-c3cccc(F)c3)ccc21 (centres unmarked) ?
A. 193

---

# MEASURED TARGET: DAT (Rattus norvegicus)
# Sequence (P23977 whole entry): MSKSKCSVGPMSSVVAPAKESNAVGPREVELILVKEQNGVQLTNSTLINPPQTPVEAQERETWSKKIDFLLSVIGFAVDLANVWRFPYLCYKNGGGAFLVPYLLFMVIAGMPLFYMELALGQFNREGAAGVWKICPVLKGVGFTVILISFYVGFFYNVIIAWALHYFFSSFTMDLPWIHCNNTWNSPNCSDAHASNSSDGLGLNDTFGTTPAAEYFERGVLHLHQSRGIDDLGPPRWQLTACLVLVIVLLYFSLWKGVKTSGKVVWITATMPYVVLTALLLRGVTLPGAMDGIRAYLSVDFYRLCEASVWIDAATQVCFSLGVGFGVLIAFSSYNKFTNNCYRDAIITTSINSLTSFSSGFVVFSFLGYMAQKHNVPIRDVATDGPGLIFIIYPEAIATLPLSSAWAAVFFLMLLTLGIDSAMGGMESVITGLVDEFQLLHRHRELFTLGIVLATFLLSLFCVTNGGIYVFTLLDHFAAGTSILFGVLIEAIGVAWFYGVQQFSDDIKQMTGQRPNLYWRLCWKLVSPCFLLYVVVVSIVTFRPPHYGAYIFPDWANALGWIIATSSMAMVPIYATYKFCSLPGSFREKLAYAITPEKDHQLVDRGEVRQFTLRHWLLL
MEASUREMENT TYPE: Ki

Q. Query for DAT (Rattus norvegicus): what Ki does the record show for CN(C)CCCC1(c2ccc(F)cc2)OCc2cc(Br)ccc21 (stereo not shown) [Compound 5] ?
A. 1650 nM
